test system: SK-MEL-5 melanoma; assay: NCI tumour cell line growth inhibition, 48 h; in the data active = GI50 below about 0.43 µM; inactive = the rest
Outcome codes: active, inactive

| compound | measurement.target | discrete.label |
| --- | --- | --- |
| CN(C)CCCN1c2ccccc2CCc2ccc(Cl)cc21 | SK-MEL-5 melanoma | inactive |
| COC1CC(OS(=O)(=O)c2ccc(C)cc2)C(OC(=O)c2ccccc2)C(C)O1 (stereo not given) | SK-MEL-5 melanoma | inactive |
| C=CC(=O)N(C)[C@H]1C[C@H]2OC(C)(C1OC)n1c3ccccc3c3c4c(c5c6ccccc6n2c5c31)C(=O)NC4 (stereo not given in full) | SK-MEL-5 melanoma | active |
| COc1cc2c(c(OC)c1OC)-c1ncc3cc(OC)c(OC)c(OC)c3c1C2 | SK-MEL-5 melanoma | inactive |
| O[C@H]1CO[C@H]2[C@@H]1OC[C@@H]2Oc1ccc(Nc2ccnc(Nc3ccc(O[C@H]4CO[C@H]5[C@@H]4OC[C@@H]5O)c(Cl)c3)n2)cc1Cl | SK-MEL-5 melanoma | inactive |
| Cc1ccc(-c2cc(-c3ccc(C)cc3)nc(NCCNc3ccnc4cc(Cl)ccc34)n2)cc1 | SK-MEL-5 melanoma | inactive |
| COC(=O)Cn1c2c(c3c(O)cccc31)C(=O)c1ccccc1-2 | SK-MEL-5 melanoma | inactive |
| Cc1ccc(NC(=O)/C=C/c2ccccc2)c(C(N)=O)c1 | SK-MEL-5 melanoma | inactive |
| COc1ccc(-c2n[nH]nc2-c2cc(OC)c3c(c2OC)OCO3)cc1 | SK-MEL-5 melanoma | inactive |
| C[C@]12CC[C@H]3[C@@H](CCC4=CC(=O)CC[C@@H]43)[C@@H]1CC[C@@H]2OC(=O)CCc1ccccc1 | SK-MEL-5 melanoma | inactive |
